# ASSAY INFO: Tissue curcumin/curcuminoids levels by UPLC-fluorescence
# Format: in vivo, female A/J mice
# DETAILS: female, A/J, mouse, in vivo, level in liver
OUTCOME MEASURE: concentration at 21 days

Lookup: // query concentration at 21 days value for entry O=C(/C=C/c1ccc(O)cc1)CC(=O)/C=C/c1ccc(O)cc1 [curcumin III, bisdemethoxycurcumin]
Found: 5 to 6 ng/g

* * *

# ASSAY INFO: Tissue curcumin/curcuminoids levels by UPLC-fluorescence
# Format: in vivo, female A/J mice
# DETAILS: female, A/J, mouse, in vivo, level in lung
Give measured concentration at 21 days for each item. Keep answers brief.
Answers are plain numbers, in ng/g.

molecule="O=C(/C=C/c1ccc(O)cc1)CC(=O)/C=C/c1ccc(O)cc1 [curcumin III, bisdemethoxycurcumin]" recorded_number=49.7

Lookup: // query concentration at 21 days value for entry COc1cc(/C=C/C(O)=C/C(=O)/C=C/c2ccc(O)cc2)ccc1O [curcumin II, demethoxycurcumin]
Found: 1.4

* * *

# ASSAY INFO: Tissue curcumin/curcuminoids levels by UPLC-fluorescence
# Type: in vivo, female A/J mice
# DETAILS: female, A/J, mouse, in vivo, level in brain
Give measured concentration at 21 days for each item. Keep answers brief.
Give bare numbers, in ng/g.

// for each compound below, give its concentration at 21 days
1. COc1cc(/C=C/C(O)=C/C(=O)/C=C/c2ccc(O)cc2)ccc1O [curcumin II, demethoxycurcumin]
2. O=C(/C=C/c1ccc(O)cc1)CC(=O)/C=C/c1ccc(O)cc1 [curcumin III, bisdemethoxycurcumin]

Found:
1. 1
2. 6.4
